Values compiled from patent US10112907B2.

Test system: Scleraxis (Scx) gene transcriptional activation in TT-D6 Scx-luciferase (ScxL) cell line
Experiment: SCX-LUC in vitro assay (Scx-luciferase reporter)
Assay type: cell-based
Conditions: Mus musculus, 96 h; Table 3; four days; read-out: Scx-Luc (EC50 μM)
endpoint: EC50 (µM)

compound: Nc1n[nH]c2ccc(-c3ccc(S(=O)(=O)N4CC(F)(F)C[C@H]4CO)cc3F)c(Cl)c12 [Example 47]
target or test system: Scleraxis (Scx) gene transcriptional activation in TT-D6 Scx-luciferase (ScxL) cell line
reported result: 0.986

compound: Cc1cc(S(=O)(=O)N2C[C@H](F)C[C@H]2CO)ccc1-c1ccc2[nH]nc(N)c2c1C [Example 87]
target or test system: Scleraxis (Scx) gene transcriptional activation in TT-D6 Scx-luciferase (ScxL) cell line
reported result: 0.288

compound: Cc1c(-c2ccc(S(=O)(=O)N3CCC[C@H]3CO)cc2Cl)ccc2[nH]nc(N)c12 [Example 38]
target or test system: Scleraxis (Scx) gene transcriptional activation in TT-D6 Scx-luciferase (ScxL) cell line
reported result: 2.04

compound: Nc1n[nH]c2ccc(-c3ccc(S(=O)(=O)N4CC(F)(F)C[C@H]4CO)cc3Cl)c(F)c12 [Example 46]
target or test system: Scleraxis (Scx) gene transcriptional activation in TT-D6 Scx-luciferase (ScxL) cell line
reported result: 1.05

compound: Cc1cc(S(=O)(=O)N2CC[C@@H](O)C2)ccc1-c1ccc2[nH]nc(N)c2c1Cl [Example 7]
target or test system: Scleraxis (Scx) gene transcriptional activation in TT-D6 Scx-luciferase (ScxL) cell line
reported result: 2.02

a. Cc1cc(S(=O)(=O)N[C@@H]2CCC[C@@H]2O)ccc1-c1ccc2[nH]nc(N)c2c1F [Example 75]
b. Cc1c(-c2c(F)cc(S(=O)(=O)N3CC(F)(F)C[C@H]3CO)cc2F)ccc2[nH]nc(N)c12 [Example 89]
When the recorded EC50 values are compared, which is smaller: that of a or that of b ? Write the label of whichever entry you select. a
